Provenance of the data: patent US9486422B2

- Target of assay: Bcl-2 (Homo sapiens)
- Construct: His-tagged proteins containing; fused on or other part: A 16-residue segment of the flexible loop of Bcl-xL (BCL2L1, Q07817; given as residues 35 to 50) set into the Bcl-2 loop region; His tag with TEV site from the pHis-TEV vector
- Experiment: FP-based binding assay, Bcl-2
- Conditions used: competitive FP, Flu-BID 2 nM, protein 60 nM; read-out: Bcl-2 Ki ± SD
Here the recorded Ki is given for each entry.

Record smiles: COC(=O)CSc1cc(NS(=O)(=O)c2ccc(Br)cc2)c2ccccc2c1O
Observable: Ki
Result: 23.8 µM

We now examine a further compound.
What value of measured Ki is listed for O=C(O)CSc1cc(NS(=O)(=O)c2ccc(Br)cc2)ccc1O ?
> 200 µM

====

- Target of assay: Bcl-2 (Homo sapiens, UniProt P10415)
- Construct: His-tagged proteins containing; fused on or other part: A 16-residue segment of the flexible loop of Bcl-xL (BCL2L1, Q07817; given as residues 35 to 50) set into the Bcl-2 loop region; His tag with TEV site from the pHis-TEV vector
- Sequence (P10415 with tags, fused parts or gaps with the stated changes): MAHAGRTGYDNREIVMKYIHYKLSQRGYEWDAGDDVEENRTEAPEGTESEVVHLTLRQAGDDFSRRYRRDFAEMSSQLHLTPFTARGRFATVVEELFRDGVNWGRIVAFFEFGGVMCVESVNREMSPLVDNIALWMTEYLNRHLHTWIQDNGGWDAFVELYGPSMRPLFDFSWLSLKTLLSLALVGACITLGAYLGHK
- Experiment: FP-based binding assay, Bcl-2
- Conditions used: read-out: Bcl-2 Ki ± SD
Observable: pKi
# pKi: negative log10 of molar concentration; output just the value

Fill blank: measured pKi of the compound O=C(O)CSc1cc(NS(=O)(=O)c2ccc(Br)cc2)c2ccccc2c1O [Compound 9] is ____.
4.62

====

In this section we review reported pKi values for a set of compounds.
- Target of assay: Bcl-w (Homo sapiens, UniProt Q92843)
- Sequence (Q92843 1-155, species assumed): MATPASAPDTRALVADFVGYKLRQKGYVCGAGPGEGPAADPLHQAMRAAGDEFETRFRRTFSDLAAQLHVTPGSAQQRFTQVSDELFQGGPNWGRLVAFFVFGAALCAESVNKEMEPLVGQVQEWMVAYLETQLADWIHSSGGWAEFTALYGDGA
The read-out pKi is expressed as -log10 of concentration in moles per litre.

Reference set, count: 2
Compound: O=C(O)CSc1cc(NS(=O)(=O)c2ccc(-c3ccccc3)cc2)c2ccccc2c1O [Compound 14]
Numeric readout: 5.72
--
Compound: O=C(O)CSc1cc(NS(=O)(=O)c2ccc(Br)cc2)c2ccccc2c1O [Compound 9]
Numeric readout: 5.09

Quick check: pKi on Bcl-w (Homo sapiens, UniProt Q92843), item O=C(O)CSc1cc(NS(=O)(=O)c2cccs2)c2ccccc2c1O [Compound 1] ?
4.43

Form: Entry = O=C(O)CSc1cc(NS(=O)(=O)c2cccc(-c3ccccc3)c2)c2ccccc2c1O [Compound 15] | System = Bcl-w (Homo sapiens, UniProt Q92843) | pKi = ____
5.66

Lab note: need pKi for O=C(O)CSc1cc(NS(=O)(=O)c2ccc(Oc3ccccc3)cc2)c2ccccc2c1O [Compound 18] on Bcl-w (Homo sapiens, UniProt Q92843), anyone have it?
5.80

Lab note: need pKi with Bcl-w (Homo sapiens, UniProt Q92843) for entry O=C(O)CSc1cc(NS(=O)(=O)c2ccccc2-c2ccccc2)c2ccccc2c1O [Compound 16] , please look it up.
5.36

====

- Target of assay: Mcl-1 (Homo sapiens)
- Experiment: FP-based binding assay, Mcl-1
- Conditions used: read-out: Mcl-1 IC50 ± SD
Observable: IC50

If you can, please state the reported IC50 value of CC(C)c1ccc(S(=O)(=O)Nc2cc(SCC(=O)O)c(O)c3ccccc23)cc1 .
3.92 µM

====

- Tested on: bone marrow derived cells from patients with multiple myeloma
- Experiment: Cellular viability (trypan blue), multiple myeloma patient cells
- Format: cell-based
- Conditions used: Homo sapiens, 0-10 μM, 0-72 hrs
Observable: IC50

Can you share its IC50? I mean this compound: O=C(O)CSc1cc(NS(=O)(=O)c2ccc(Br)cc2)c2ccccc2c1O
2.5 to 5 µM

====

- Target of assay: Mcl-1/Bax protein-protein interactions (Homo sapiens, UniProt Q07820)
- Sequence (Q07820 171-327): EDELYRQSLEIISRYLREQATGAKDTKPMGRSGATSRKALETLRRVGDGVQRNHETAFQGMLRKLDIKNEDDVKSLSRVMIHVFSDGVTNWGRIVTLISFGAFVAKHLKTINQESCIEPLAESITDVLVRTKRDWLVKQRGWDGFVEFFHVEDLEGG
- Experiment: SPR competitive solution binding assay, Mcl-1 to immobilized Bax
- Conditions used: Mcl-1 300 nM pre-incubated with inhibitor; read-out: IC50, inhibition of binding of Mcl-1 to Bax
- Description: SPR experiments were performed using Biacore 2000 optical biosensors. Recombinant Bax, residues 1 to 100 (Novus Biologicals) and Mcl-1 proteins were used for competitive solution binding experiments. The details for immobilization of Bax protein, determination of the binding affinity of Mcl-1 to Bax, and conditions for testing Mcl-1 compounds are provided. […]
Observable: pIC50
// pIC50 here means minus log10 of the molar concentration (mol/L)

Please give the measured pIC50 for this compound: O=C(O)CSc1cc(NS(=O)(=O)c2ccc(Br)cc2)c2ccccc2c1O
5.84

====

This listing pairs molecules with measured Ki.
- Target of assay: Mcl-1 (Homo sapiens, UniProt Q07820)
- Experiment: FP-based binding assay, Mcl-1
- Conditions used: competitive FP, Ki calculated from IC50; read-out: Mcl-1 Ki ± SD

These recorded examples may help you get a feel for the data.
Molecule: O=C(O)CSc1cc(NC(=O)Cc2ccccc2)c2ccccc2c1O
Observable: Ki
Result: 42.4 µM
//
Molecule: CC(C)c1ccc(S(=O)(=O)Nc2cc(SCC(=O)O)c(O)c3ccccc23)cc1
Observable: Ki
Result: 1.06 µM
//
Molecule: CCOc1ccc(S(=O)(=O)Nc2cc(SCC(=O)O)c(O)c3ccccc23)cc1
Observable: Ki
Result: 13.7 µM
//
Molecule: CCCCSc1cc(NS(=O)(=O)c2ccc(Br)cc2)c2ccccc2c1OC [Compound 40p]
Observable: Ki
Result: > 200 µM
//
Molecule: CCCCSc1cc(NS(=O)(=O)c2ccc(Br)cc2)c2ccccc2c1O
Observable: Ki
Result: > 25 µM
//
Molecule: COc1c(SCC(N)=O)cc(NS(=O)(=O)c2ccc(Br)cc2)c2ccccc12
Observable: Ki
Result: > 25 µM

Would you kindly share the measured Ki for O=C(O)CSc1cc(NS(=O)(=O)c2ccc(Br)cc2)ccc1O ?
> 200 µM

====

- Target of assay: Bcl-xL (Homo sapiens, UniProt Q07817, DEL45-85)
- Sequence (Q07817 other isoform, or with tags, fused parts or gaps DEL45-85): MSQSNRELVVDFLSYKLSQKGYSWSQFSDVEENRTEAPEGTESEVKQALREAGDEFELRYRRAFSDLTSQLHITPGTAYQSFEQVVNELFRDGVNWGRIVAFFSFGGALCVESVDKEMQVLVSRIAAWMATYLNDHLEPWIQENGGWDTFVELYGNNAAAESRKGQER
- Experiment: FP-based binding assay, Bcl-xL
- Conditions used: read-out: Bcl-xL Ki ± SD
Observable: pKi
To interpret pKi, take it as minus log10 of a concentration measured in moles per litre.

Solved cases (3 shown):
Compound: O=C(O)CSc1cc(NS(=O)(=O)c2cccc(-c3ccccc3)c2)c2ccccc2c1O [Compound 15]
pKi: 4.82
--
Compound: O=C(O)CSc1cc(NS(=O)(=O)c2ccc(-c3ccccc3)cc2)c2ccccc2c1O [Compound 14]
pKi: 5.09
--
Compound: O=C(O)CSc1cc(NS(=O)(=O)c2ccccc2-c2ccccc2)c2ccccc2c1O [Compound 16]
pKi: 4.32

Now, please, on to the next compound.
Entry O=C(O)CSc1cc(NS(=O)(=O)c2ccc(Br)cc2)c2ccccc2c1O [Compound 9] , system Bcl-xL (Homo sapiens, UniProt Q07817, DEL45-85): what pKi was measured?
4.48

====

- Target of assay: A1/Bfl-1 (Homo sapiens)
- Sequence (Q16548 1-151): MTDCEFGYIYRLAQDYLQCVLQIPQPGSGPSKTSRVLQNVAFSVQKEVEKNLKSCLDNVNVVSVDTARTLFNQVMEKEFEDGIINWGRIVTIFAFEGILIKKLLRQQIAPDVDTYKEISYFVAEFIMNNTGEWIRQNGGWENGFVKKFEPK
- Experiment: FP-based binding assay, A1/Bfl-1
- Conditions used: read-out: A1/Bfl-1 Ki ± SD
Parameter: pKi. Scope: all listed entries.
# pKi is unitless: minus log10 of the molar concentration; print number only

Record smiles: O=C(O)CSc1cc(NS(=O)(=O)c2ccc(Br)cc2)c2ccccc2c1O
Target of assay: A1/Bfl-1 (Homo sapiens)
pKi: 5.27
--
Record smiles: O=C(O)CSc1cc(NS(=O)(=O)c2ccccc2-c2ccccc2)c2ccccc2c1O
Target of assay: A1/Bfl-1 (Homo sapiens)
pKi: 4.76
--
Record smiles: O=C(O)CSc1cc(NS(=O)(=O)c2cccc(-c3ccccc3)c2)c2ccccc2c1O
Target of assay: A1/Bfl-1 (Homo sapiens)
pKi: 5.50

Now for another entry.
Find the recorded pKi belonging to O=C(O)CSc1cc(NS(=O)(=O)c2ccc(-c3ccccc3)cc2)c2ccccc2c1O and report it.
5.63

====

- Target of assay: UniProt Q07820
- Experiment: FP-based binding assay, Mcl-1
Observable: pIC50
# pIC50 = -log10(concentration in molar units)

Fill in: pIC50 of O=C(O)CSc1cc(NS(=O)(=O)c2cc3ccccc3s2)c2ccccc2c1O is ___
5.25

====

- Target of assay: Bcl-xL (Homo sapiens, UniProt Q07817, DEL45-85)
- Experiment: FP-based binding assay, Bcl-xL
- Conditions used: competitive FP, FAM-BID 2 nM, protein 50 nM; read-out: Bcl-xL Ki ± SD
pKi: −log10 of the molar value.
Observable: pKi

Dear colleague, I am looking for the recorded pKi of the following compound: O=C(O)CSc1cc(NS(=O)(=O)c2ccc(Oc3ccccc3)cc2)c2ccccc2c1O [Compound 18]
4.98

Entry under review: COC(=O)CSc1cc(NS(=O)(=O)c2ccc(Br)cc2)c2ccccc2c1O [Compound 29] . Reported pKi?
< 3.89

Which pKi value is on record for O=C(O)CSc1cc(NS(=O)(=O)c2ccc(Br)cc2)ccc1O [Compound 22] ?
< 3.89

====

- Target of assay: Mcl-1 (Homo sapiens, UniProt Q07820)
- Experiment: FP-based binding assay, Mcl-1
- Conditions used: competitive FP, Flu-BID 2 nM, Mcl-1 90 nM; read-out: Mcl-1 IC50 ± SD
Criterion: IC50 strictly under 9 µM. Met: condition met. Not met: condition not met.

The following molecules have reported results that may help.
Molecule: O=C(O)CSc1cc(NS(=O)(=O)c2ccc(-c3ccccc3)cc2)c2ccccc2c1O
Assigned label: condition met
--
Molecule: O=C(O)CSc1cc(NS(=O)(=O)c2ccc(-c3ccc(Cl)cc3)cc2)c2ccccc2c1O
Assigned label: condition met
--
Molecule: O=C(O)CSc1cc(NS(=O)(=O)c2ccccc2)c2ccccc2c1O
Assigned label: condition not met
--
Molecule: NC(=O)CSc1cc(NS(=O)(=O)c2ccc(Br)cc2)c2ccccc2c1O
Assigned label: condition met
--
Molecule: O=C(O)CSc1cc(NS(=O)(=O)c2ccc(F)cc2)c2ccccc2c1O
Assigned label: condition not met
--
Molecule: CS(=O)(=O)Nc1cc(SCC(=O)O)c(O)c2ccccc12
Assigned label: condition not met
--
Molecule: O=C(O)CCSc1cc(NS(=O)(=O)c2cccc3ccccc23)c2ccccc2c1O
Assigned label: condition not met
--
Molecule: O=C(O)CCSc1cc(NS(=O)(=O)c2ccc3ccccc3c2)c2ccccc2c1O
Assigned label: condition met
--
Molecule: O=C(O)CSc1cc(NS(=O)(=O)c2ccc(C(=O)O)cc2)c2ccccc2c1O
Assigned label: condition not met
--
Molecule: O=C(O)CSc1cc(NS(=O)(=O)c2ccc3ccccc3c2)c2ccccc2c1O
Assigned label: condition met

Decide: IC50 of O=C(O)CSc1cc(NC(=O)Cc2ccccc2)c2ccccc2c1O strictly below 9 µM?
condition not met

Is it true that IC50 reported for O=C(O)CSc1cc(NS(=O)(=O)c2ccccc2Br)c2ccccc2c1O is less than 9 µM?
condition not met

Input O=C(O)CSc1cc(NS(=O)(=O)c2ccc(Br)cc2)ccc1O ; condition: IC50 strictly below 9 µM. Does it hold?
condition not met

I'd appreciate it if you could check whether O=C(O)CSc1cc(NS(=O)(=O)c2ccc(Cl)cc2)c2ccccc2c1O has IC50 smaller than 9 µM.
condition met

Dear colleague, could you confirm whether IC50 of COC(=O)CSc1cc(NS(=O)(=O)c2ccc(Br)cc2)c2ccccc2c1O falls below 9 µM? Thanks.
condition not met

is_below(IC50, 9 µM) for CC(C)(C)c1ccc(S(=O)(=O)Nc2cc(SCC(=O)O)c(O)c3ccccc23)cc1 ?
condition met

Take the molecule O=C(O)CSc1cc(NS(=O)(=O)c2cccc(Br)c2)c2ccccc2c1O and say whether its IC50 is less than 9 µM.
condition met
